# assay_name: Apparent permeability of the compound across apical to basolateral sides in human Caco-2 cells at 2 uM measured after 2 hrs by LC-MS/MS analysis
# Format: ADME, cell-based
measured_metric: Papp A→B at 2 h, 2 µM (×10⁻⁶ cm/s)

CC[C@@H](NC(=O)c1cn(-c2ccc(F)cc2F)c2nc(N3C[C@@H](O)CC3=O)ccc2c1=O)C(F)(F)F :: 45.6
CC(NC(=O)c1cn(-c2c(F)cc(F)cc2F)c2nc(N3C[C@@H](O)[C@H](O)C3)ccc2c1=O)C(F)(F)C(F)(F)F (single isomer, unassigned; diastereomer 1) :: 19.3

I. CC[C@H](NC(=O)c1cn(-c2c(F)cc(F)cc2F)c2nc(N3C[C@@H](O)[C@H](O)C3)ccc2c1=O)C(F)(F)F
II. CCC(NC(=O)c1cn(-c2c(F)cc(F)cc2F)c2nc(N3C[C@@H](O)[C@H](O)C3)ccc2c1=O)C(F)(F)C(F)(F)F (single isomer, unassigned; diastereomer 1)
Prompt: Hey, which is lower on measured Papp A→B at 2 h, 2 µM, I or II ? Please reply using the label of the selected record.
Completion: I
(I: 1.2 ×10⁻⁶ cm/s, II: 8.3 ×10⁻⁶ cm/s)

Reference source for all entries: ChEMBL document CHEMBL6083268
